compound	melting point
N#Cc1ccc(-c2cnc3c(c2)N(Cc2ccccc2)C(=O)CN3)cn1	> 200 °C
OC1CCNc2ncc(Br)cc21 (stereo not drawn)	125 to 128 °C
O=C(O)CCNc1cccc(Br)n1	108 to 109 °C
Cc1noc(C)c1-c1cnc2c(c1)N(Cc1c(F)ccc(F)c1Cl)CCN2	215 to 216 °C
O=C(O)c1ccc(-c2cnc3c(c2)N(Cc2cc(F)ccc2F)C(=O)CN3)cc1	> 300 °C
CN(C)CCCCCCNC(=O)c1ccc(-c2cnc3c(c2)N(Cc2ccccc2)C(=O)CN3)cc1	> 200 °C
OC1CNc2ncc(I)cc2N1Cc1cc(F)ccc1C(F)(F)F (stereo not drawn)	142 °C (dec.)
CN1CCN(c2ccc(-c3cnc4c(c3)N(Cc3c(F)ccc(F)c3Cl)CC(=O)N4)cn2)CC1	235 to 236 °C (dec.)
CCOC(=O)c1ccc(-c2cnc3c(c2)N(Cc2cc(F)ccc2F)CCN3)cc1	173 to 174 °C

---

- subject.of.test: baculovirus-expressed ALK (Homo sapiens)
pIC50: −log10 of the molar value. Structures can show the parent of a compound that is named as a salt.
Each entry below carries its recorded pIC50.
measured.endpoint: pIC50

compound	result
O=C(NCC(c1ccccc1)c1ccccc1)c1ccc(-c2cnc3c(c2)N(Cc2cc(Cl)ccc2C(F)(F)F)CCN3)cc1 [Example 391]	6.00 to 7.00
O=C(c1ccc(-c2cnc3c(c2)N(Cc2c(Cl)cccc2Cl)CCN3)cc1)N1CCC(N2CCCC2)CC1 [Example 163]	> 7.00
FC(F)(F)c1ccc(Cl)cc1CN1CCNc2ncc(I)cc21 [Example 115]	5.00 to 6.00
O=C(c1ccc(-c2cnc3c(c2)N(Cc2cc(Cl)ccc2C(F)(F)F)CCN3)cc1)N1CCC(c2noc3cc(F)ccc23)CC1 [Example 387]	6.00 to 7.00
CCOC(=O)c1ccc(-c2cnc3c(c2)N(Cc2cc(F)ccc2F)C(=O)CN3)cc1 [Example 55]	4.00 to 5.00
O=C1CNc2ncc(-c3ccc(C(=O)N4CCC[C@H]4CN4CCCC4)cc3)cc2N1Cc1c(Cl)cccc1Cl [Example 141]	6.00 to 7.00
CN(C)CCCCNC(=O)c1ccc(-c2cnc3c(c2)N(Cc2c(Cl)cccc2Cl)C(=O)CN3)cc1 [Example 144, trifluoroacetic acid salt]	6.00 to 7.00

---

- subject.of.test: c-Met (phospho-c-Met) in HT29 cells (Homo sapiens)
- Construct: endogenous in cells; host or cells: HT29, A549 (HGF-stimulated), GTL-16
- Sequence (P08581 25-1390): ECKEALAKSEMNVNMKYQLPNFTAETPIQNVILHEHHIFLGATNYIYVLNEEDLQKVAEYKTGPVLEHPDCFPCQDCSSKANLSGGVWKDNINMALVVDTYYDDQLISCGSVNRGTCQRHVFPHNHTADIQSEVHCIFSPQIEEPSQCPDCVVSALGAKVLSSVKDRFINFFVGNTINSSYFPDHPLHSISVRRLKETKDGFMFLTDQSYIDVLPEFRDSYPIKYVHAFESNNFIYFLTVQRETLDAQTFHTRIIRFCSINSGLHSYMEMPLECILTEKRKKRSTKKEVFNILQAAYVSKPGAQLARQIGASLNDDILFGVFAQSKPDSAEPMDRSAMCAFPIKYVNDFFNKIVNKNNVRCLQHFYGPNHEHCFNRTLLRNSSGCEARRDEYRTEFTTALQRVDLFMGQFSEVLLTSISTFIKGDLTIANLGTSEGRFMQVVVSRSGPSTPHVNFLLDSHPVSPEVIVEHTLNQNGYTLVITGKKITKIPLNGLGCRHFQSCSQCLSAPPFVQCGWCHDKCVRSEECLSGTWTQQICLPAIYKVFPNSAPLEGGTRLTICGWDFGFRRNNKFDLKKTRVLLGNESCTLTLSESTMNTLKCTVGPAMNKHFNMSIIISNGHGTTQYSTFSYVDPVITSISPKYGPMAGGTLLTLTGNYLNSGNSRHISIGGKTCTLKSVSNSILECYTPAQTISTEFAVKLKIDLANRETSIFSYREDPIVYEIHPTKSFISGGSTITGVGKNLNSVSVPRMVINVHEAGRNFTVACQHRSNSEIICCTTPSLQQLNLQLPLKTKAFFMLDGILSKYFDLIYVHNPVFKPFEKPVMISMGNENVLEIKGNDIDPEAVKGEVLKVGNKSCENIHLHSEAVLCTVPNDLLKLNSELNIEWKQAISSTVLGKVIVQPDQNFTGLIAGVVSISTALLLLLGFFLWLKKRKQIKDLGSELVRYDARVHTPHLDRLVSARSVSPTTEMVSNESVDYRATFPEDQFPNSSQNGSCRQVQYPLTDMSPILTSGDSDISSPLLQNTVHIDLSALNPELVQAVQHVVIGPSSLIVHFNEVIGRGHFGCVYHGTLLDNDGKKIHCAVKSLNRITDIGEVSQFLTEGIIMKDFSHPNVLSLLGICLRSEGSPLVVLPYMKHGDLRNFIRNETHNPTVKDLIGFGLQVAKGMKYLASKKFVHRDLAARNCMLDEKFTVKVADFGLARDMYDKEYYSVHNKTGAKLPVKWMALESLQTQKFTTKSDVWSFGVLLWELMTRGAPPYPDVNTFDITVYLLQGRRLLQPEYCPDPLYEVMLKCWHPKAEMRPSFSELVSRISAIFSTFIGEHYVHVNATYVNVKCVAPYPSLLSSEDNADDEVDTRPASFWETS
- test.name: c-Met Cellular Activity/Autophosphorylation Assay, HT29 cells
- Format: cell-based
- experimental.conditions: HT-29, 1 μM compound, read-out: c-Met autophosphorylation inhibition score, HT29 Cells (1 μM)
measured.endpoint: inhibition at 1 µM

molecule	subject.of.test	measured.endpoint	result
O=C1CNc2ncc(-c3ccc(C(=O)N4CCC[C@H]4CN4CCCC4)cc3)cc2N1Cc1cc(Cl)ccc1Cl [Example 157]	c-Met (phospho-c-Met) in HT29 cells (Homo sapiens)	inhibition at 1 µM	0 to 25%
CC(c1c(F)ccc(F)c1Cl)N1CCNc2ncc(-c3ccc(N4CCN(C)CC4)nc3)cc21 (stereo not shown) [Example 177]	c-Met (phospho-c-Met) in HT29 cells (Homo sapiens)	inhibition at 1 µM	26 to 50%
CN1CCN(c2ccc(-c3cnc4c(c3)N(Cc3c(F)ccc(F)c3Cl)CCN4)cn2)CC1 [Example 185]	c-Met (phospho-c-Met) in HT29 cells (Homo sapiens)	inhibition at 1 µM	51 to 75%
O=C(c1ccc(-c2cnc3c(c2)N(Cc2cc(Cl)ccc2C(F)(F)F)CCN3)cc1)N1CCC(N2CCCC2)CC1 [Example 117]	c-Met (phospho-c-Met) in HT29 cells (Homo sapiens)	inhibition at 1 µM	0 to 25%
CN1CCN(c2ccc(-c3cnc4c(c3)N(Cc3cc(C(F)(F)F)ccc3Cl)CCN4)cn2)CC1 [Example 120]	c-Met (phospho-c-Met) in HT29 cells (Homo sapiens)	inhibition at 1 µM	26 to 50%
CN1CCN(c2ccc(-c3cnc4c(c3)N(S(=O)(=O)c3cc(F)ccc3F)CCN4)cn2)CC1 [Example 122]	c-Met (phospho-c-Met) in HT29 cells (Homo sapiens)	inhibition at 1 µM	26 to 50%
CC(C)(C)OC(=O)NCC#Cc1cnc2c(c1)N(Cc1cc(Cl)ccc1Cl)CCN2 [Example 168]	c-Met (phospho-c-Met) in HT29 cells (Homo sapiens)	inhibition at 1 µM	0 to 25%
O=C(c1ccc(-c2cnc3c(c2)N(Cc2cc(Cl)ccc2C(F)(F)F)CCN3)cc1)N1CCC(N2CCOCC2)CC1 [Example 287]	c-Met (phospho-c-Met) in HT29 cells (Homo sapiens)	inhibition at 1 µM	0 to 25%
CN1CCN(c2ccc(-c3cnc4c(c3)N(Cc3cc(F)ccc3F)CCN4)cn2)CC1 [Example 69]	c-Met (phospho-c-Met) in HT29 cells (Homo sapiens)	inhibition at 1 µM	0 to 25%
O=C(c1ccc(-c2cnc3c(c2)N(Cc2cc(Cl)ccc2Cl)CCN3)cc1)N1CCC(N2CCCC2)CC1 [Example 160]	c-Met (phospho-c-Met) in HT29 cells (Homo sapiens)	inhibition at 1 µM	26 to 50%
Nc1ccc(-c2cnc3c(c2)N(Cc2c(F)ccc(F)c2Cl)CCN3)cn1 [Example 184]	c-Met (phospho-c-Met) in HT29 cells (Homo sapiens)	inhibition at 1 µM	51 to 75%
O=C(c1ccc(-c2cnc3c(c2)N(Cc2c(F)ccc(F)c2Cl)CCN3)cc1)N1CCC(N2CCCC2)CC1 [Example 99]	c-Met (phospho-c-Met) in HT29 cells (Homo sapiens)	inhibition at 1 µM	0 to 25%
O=C(c1ccc(-c2cnc3c(c2)N(Cc2c(Cl)cccc2Cl)CCN3)cc1)N1CCC[C@H]1CN1CCCC1 [Example 164]	c-Met (phospho-c-Met) in HT29 cells (Homo sapiens)	inhibition at 1 µM	0 to 25%
CN1CCN(C(=O)c2ccc(-c3cnc4c(c3)N(Cc3c(F)ccc(F)c3Cl)CCN4)cc2)CC1 [Example 104]	c-Met (phospho-c-Met) in HT29 cells (Homo sapiens)	inhibition at 1 µM	0 to 25%
Fc1ccc(F)c(CN2CCNc3ncc(-c4ccnc(N5CCOCC5)c4)cc32)c1Cl [Example 186]	c-Met (phospho-c-Met) in HT29 cells (Homo sapiens)	inhibition at 1 µM	26 to 50%
O=C(O)c1ccc(-c2cnc3c(c2)N(Cc2cc(F)ccc2F)CCN3)cn1 [Example 72]	c-Met (phospho-c-Met) in HT29 cells (Homo sapiens)	inhibition at 1 µM	26 to 50%
O=C(c1ccc(-c2cnc3c(c2)N(Cc2cc(Cl)ccc2Cl)CCN3)cc1)N1CCC[C@H]1CN1CCCC1 [Example 159]	c-Met (phospho-c-Met) in HT29 cells (Homo sapiens)	inhibition at 1 µM	0 to 25%
CN1CCN(c2ccc(-c3cnc4c(c3)N(Cc3cc(Cl)ccc3C(F)(F)F)CCN4)cn2)CC1 [Example 118]	c-Met (phospho-c-Met) in HT29 cells (Homo sapiens)	inhibition at 1 µM	26 to 50%
Fc1ccc(F)c(CN2CCNc3ncc(-c4ccnc(N5CCOCC5)c4F)cc32)c1Cl [Example 102]	c-Met (phospho-c-Met) in HT29 cells (Homo sapiens)	inhibition at 1 µM	26 to 50%
O=C(c1ccc(-c2cnc3c(c2)N(Cc2c(F)ccc(F)c2Cl)CCN3)cc1)N1CCC[C@H]1CN1CCCC1 [Example 100]	c-Met (phospho-c-Met) in HT29 cells (Homo sapiens)	inhibition at 1 µM	0 to 25%
O=C(c1ccc(-c2cnc3c(c2)N(Cc2c(Cl)cccc2Cl)CCN3)cc1)N1CCC(N2CCCC2)CC1 [Example 163]	c-Met (phospho-c-Met) in HT29 cells (Homo sapiens)	inhibition at 1 µM	0 to 25%
O=C(c1ccc(-c2cnc3c(c2)N(Cc2cc(F)ccc2F)CCN3)cn1)N1CCOCC1 [Example 76]	c-Met (phospho-c-Met) in HT29 cells (Homo sapiens)	inhibition at 1 µM	0 to 25%

---

Where a name gives a salt, the structure may show the parent alone.
The reader will find IC50 measurements below, all made with baculovirus-expressed ALK (Homo sapiens, UniProt Q9UM73).
Sequence (Q9UM73 19-1620): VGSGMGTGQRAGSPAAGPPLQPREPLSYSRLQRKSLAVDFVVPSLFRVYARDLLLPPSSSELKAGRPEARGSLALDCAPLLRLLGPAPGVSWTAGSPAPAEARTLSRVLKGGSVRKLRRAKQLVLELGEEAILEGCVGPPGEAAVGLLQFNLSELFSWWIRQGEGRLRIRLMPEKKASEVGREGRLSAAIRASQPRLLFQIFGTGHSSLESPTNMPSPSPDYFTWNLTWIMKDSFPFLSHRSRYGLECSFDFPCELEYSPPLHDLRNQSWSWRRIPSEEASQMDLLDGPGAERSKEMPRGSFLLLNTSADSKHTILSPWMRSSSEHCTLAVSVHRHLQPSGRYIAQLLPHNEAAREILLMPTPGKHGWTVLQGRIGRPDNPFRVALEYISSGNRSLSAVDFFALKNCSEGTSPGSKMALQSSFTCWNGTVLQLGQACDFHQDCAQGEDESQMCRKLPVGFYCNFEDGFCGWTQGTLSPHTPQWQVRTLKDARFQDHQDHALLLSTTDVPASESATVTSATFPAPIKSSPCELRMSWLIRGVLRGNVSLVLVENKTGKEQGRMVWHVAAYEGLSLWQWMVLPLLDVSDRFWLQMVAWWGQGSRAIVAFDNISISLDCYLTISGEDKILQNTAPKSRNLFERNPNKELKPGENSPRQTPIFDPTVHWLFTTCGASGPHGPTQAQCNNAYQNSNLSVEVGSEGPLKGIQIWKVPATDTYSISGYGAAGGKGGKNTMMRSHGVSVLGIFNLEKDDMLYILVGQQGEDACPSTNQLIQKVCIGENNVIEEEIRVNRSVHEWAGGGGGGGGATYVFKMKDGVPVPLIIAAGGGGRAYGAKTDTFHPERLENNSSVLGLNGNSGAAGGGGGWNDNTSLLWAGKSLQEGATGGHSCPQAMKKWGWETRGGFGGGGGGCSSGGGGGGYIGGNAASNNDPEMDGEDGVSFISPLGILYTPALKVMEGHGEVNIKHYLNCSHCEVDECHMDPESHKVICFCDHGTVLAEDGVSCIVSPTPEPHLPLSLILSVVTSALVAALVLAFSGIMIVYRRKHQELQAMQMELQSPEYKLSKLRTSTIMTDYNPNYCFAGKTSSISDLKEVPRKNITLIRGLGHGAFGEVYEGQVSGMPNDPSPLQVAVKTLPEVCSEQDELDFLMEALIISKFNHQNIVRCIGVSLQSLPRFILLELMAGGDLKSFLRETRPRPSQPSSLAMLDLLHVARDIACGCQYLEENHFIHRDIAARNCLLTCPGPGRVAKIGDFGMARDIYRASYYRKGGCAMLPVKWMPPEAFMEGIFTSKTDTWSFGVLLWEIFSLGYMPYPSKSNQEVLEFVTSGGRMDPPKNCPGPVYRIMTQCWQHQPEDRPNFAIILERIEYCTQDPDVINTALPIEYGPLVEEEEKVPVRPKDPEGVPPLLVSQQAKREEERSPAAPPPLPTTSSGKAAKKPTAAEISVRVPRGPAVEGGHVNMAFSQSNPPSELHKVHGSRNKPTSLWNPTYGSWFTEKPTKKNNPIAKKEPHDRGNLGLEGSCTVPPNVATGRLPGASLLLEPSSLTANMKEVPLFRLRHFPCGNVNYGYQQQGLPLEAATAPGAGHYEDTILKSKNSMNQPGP

molecule	IC50
CN(C)CCNC(=O)c1cccc(-c2cnc3c(c2)N(Cc2ccccc2)C(=O)CN3)c1 [Example 19, trifluoroacetic acid salt]	1000 to 10000 nM
Clc1ccc(Cl)c(CN2CCNc3ncc(I)cc32)c1	1000 to 10000 nM
COC1CCN(C(=O)c2ccc(-c3cnc4c(c3)N(Cc3cc(Cl)ccc3C(F)(F)F)CCN4)cc2)CC1	< 100 nM
O=C(c1ccc(-c2cnc3c(c2)N(Cc2ccccc2)CCN3)cc1)N1CCC[C@H]1CN1CCCC1 [Example 38, trifluoroacetic acid salt]	100 to 1000 nM
CCOC(=O)c1ccc(-c2cnc3c(c2)N(Cc2cc(Cl)ccc2C(F)(F)F)CCN3)cc1	> 100000 nM
O=C(O)c1ccc(-c2cnc3c(c2)N(Cc2cccnc2Cl)CCN3)cc1	> 100000 nM
O=C(O)c1cccc(-c2cnc3c(c2)N(Cc2cc(Cl)ccc2C(F)(F)F)CCN3)c1	1000 to 10000 nM
CN1CCN(C(=O)c2ccc(-c3cnc4c(c3)C(Oc3cccc(Cl)c3)CCN4)cc2)CC1 (stereo not drawn)	1000 to 10000 nM
CN1CCN(C(=O)c2ccc(-c3cnc4c(c3)N(Cc3c(F)ccc(F)c3Cl)CCN4)cc2)CC1	< 100 nM
O=C(c1ccc(-c2cnc3c(c2)N(Cc2cc(Cl)ccc2C(F)(F)F)CCN3)cc1)N1CCN(c2ncnc3ccsc23)CC1	100 to 1000 nM
O=C(NC1CCN(Cc2ccccc2)C1)c1ccc(-c2cnc3c(c2)N(Cc2cc(Cl)ccc2C(F)(F)F)CCN3)cc1 (stereo not drawn)	100 to 1000 nM
O=C(c1ccc(-c2cnc3c(c2)N(Cc2cc(F)ccc2F)CCN3)cc1)N1CCC[C@H]1CN1CCCC1	< 100 nM
O=C(NCc1cccc2ccccc12)c1cnc2c(c1)N(Cc1cc(Cl)ccc1Cl)CCN2	1000 to 10000 nM
O=C1CNc2ncc(-c3cccnc3)cc2N1Cc1c(F)ccc(F)c1Cl [Example 4, trifluoroacetic acid salt]	1000 to 10000 nM
CCOC(=O)c1cccc(-c2cnc3c(c2)N(Cc2cc(Cl)ccc2C(F)(F)F)CCN3)c1	100 to 1000 nM
O=C(c1ccc(-c2cnc3c(c2)N(Cc2cc(Cl)ccc2C(F)(F)F)CCN3)cc1)N1CCN(c2ccccc2Cl)CC1	100 to 1000 nM
O=C(O)c1ccc(-c2cnc3c(c2)N(Cc2ccccc2OC(F)(F)F)CCN3)cc1	1000 to 10000 nM
COc1ccc(CNC(=O)c2ccc(-c3cnc4c(c3)N(Cc3cc(Cl)ccc3C(F)(F)F)CCN4)cc2)cc1	100 to 1000 nM
O=C1CNc2ncc(-c3ccc(C(=O)N4CCC[C@H]4CN4CCCC4)cc3)cc2N1Cc1cc(F)ccc1F	100 to 1000 nM
O=C1CNc2ncc(-c3ccc(NS(=O)(=O)CCN4CCC[C@H]4CN4CCCC4)cc3)cc2N1Cc1cc(F)ccc1F	100 to 1000 nM
CN1CCN(c2ccc(-c3cnc4c(c3)N(Cc3cc(C(F)(F)F)ccc3Cl)CCN4)cn2)CC1	100 to 1000 nM
Clc1cccc(OC2CCNc3ncc(Br)cc32)c1 (stereo not drawn)	> 100000 nM
CN1CCN(CCNC(=O)c2cnc3c(c2)N(Cc2cc(F)ccc2F)CCN3)CC1	10000 to 100000 nM
O=C1CNc2ncc(-c3ccc(NS(=O)(=O)CCN4CCOCC4)cc3)cc2N1Cc1cc(F)ccc1F	100 to 1000 nM
